// data source = patent EP2752664A1

# assayedTarget: mannose/Concanavalin A interaction (Canavalia ensiformis)
# protocolText: Inhibition competition assay with hydrogel particles, surface energy read out via RICM (SCP-RICM, inventive method)
# Assay type: binding
# conditionDescription: read-out: IC50 value determined using an inventive method; mannose functionalized hydrogel particles, ConA immobilized on the solid carrier (Fig. 7a); Hill fit of normalized surface energy; PAA Man values normalized per mannose
metricName: IC50 (µM)
Report as a plain number; the unit µM is understood.

# IC50 (compound: CO[C@H]1O[C@H](CO)[C@@H](O)[C@H](O)[C@@H]1O ) is 618
